What melting point was measured for each of the following?

Please fill in: melting point reported for `CCCn1nc2c(N)nc3ccccc3c2c1CC(C)(C)OCCS(C)(=O)=O` = 197 to 200 °C

Please fill in: melting point reported for `c1ccc(N2CCN(CCCc3[nH]nc4c3CCCC4)CC2)cc1` = 92 to 94 °C

Please fill in: melting point reported for `Oc1ccc2nc(Br)sc2c1` = 203 to 204 °C

Please fill in: melting point reported for `N#CN1CCC(c2nn(-c3ccccc3)c3ccccc23)CC1` = 124 to 125 °C

Please fill in: melting point reported for `CC(=O)N1CC(C)(C)CN=C1N(N=CC(C=Cc1ccc(C(F)(F)F)cc1)=Cc1ccc(C(F)(F)F)cc1)C(C)=O` = 70 to 72 °C
